target: OSBP1-myc-his (Homo sapiens, UniProt P22059); construct: S100 lysate, not purified); assay: [3H]-25-hydroxycholesterol charcoal-dextran binding assay with OSBP1-myc-his; conditions: direct binding
Sequence (P22059 whole entry): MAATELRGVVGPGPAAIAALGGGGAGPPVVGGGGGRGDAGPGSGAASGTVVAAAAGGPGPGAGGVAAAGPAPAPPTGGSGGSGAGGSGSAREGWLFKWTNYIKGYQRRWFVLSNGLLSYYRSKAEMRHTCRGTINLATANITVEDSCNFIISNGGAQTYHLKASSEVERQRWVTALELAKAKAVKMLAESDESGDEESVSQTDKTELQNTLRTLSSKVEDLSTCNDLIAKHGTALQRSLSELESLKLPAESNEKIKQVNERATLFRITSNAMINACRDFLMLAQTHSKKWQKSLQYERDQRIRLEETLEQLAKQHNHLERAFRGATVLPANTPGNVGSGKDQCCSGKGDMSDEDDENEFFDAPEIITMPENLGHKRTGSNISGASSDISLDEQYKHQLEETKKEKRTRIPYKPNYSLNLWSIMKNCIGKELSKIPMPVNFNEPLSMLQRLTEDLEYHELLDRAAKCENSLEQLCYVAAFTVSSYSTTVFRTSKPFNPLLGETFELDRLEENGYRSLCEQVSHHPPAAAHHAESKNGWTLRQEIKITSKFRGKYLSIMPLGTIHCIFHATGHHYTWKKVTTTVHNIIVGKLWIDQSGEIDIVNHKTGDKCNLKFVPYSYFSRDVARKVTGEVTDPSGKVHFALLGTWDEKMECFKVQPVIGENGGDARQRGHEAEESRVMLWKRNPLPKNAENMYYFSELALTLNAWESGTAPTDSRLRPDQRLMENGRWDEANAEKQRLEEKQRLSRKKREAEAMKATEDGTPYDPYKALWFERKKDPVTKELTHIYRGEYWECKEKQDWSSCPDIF
metric: pKd
Remember the convention: pKd equals -log10 of concentration in molar.

Item: C[C@H](CCCC(C)(C)O)[C@H]1CC[C@H]2[C@@H]3CC=C4C[C@@H](O)CC[C@]4(C)[C@H]3CC[C@]12C [Compound 25-OHC, 25-hydroxycholesterol] | System: OSBP1-myc-his (Homo sapiens, UniProt P22059) | pKd: 7.49

====

biological target: ORP4L-myc-his (Homo sapiens, UniProt Q969R2)
Sequence (Q969R2 whole entry): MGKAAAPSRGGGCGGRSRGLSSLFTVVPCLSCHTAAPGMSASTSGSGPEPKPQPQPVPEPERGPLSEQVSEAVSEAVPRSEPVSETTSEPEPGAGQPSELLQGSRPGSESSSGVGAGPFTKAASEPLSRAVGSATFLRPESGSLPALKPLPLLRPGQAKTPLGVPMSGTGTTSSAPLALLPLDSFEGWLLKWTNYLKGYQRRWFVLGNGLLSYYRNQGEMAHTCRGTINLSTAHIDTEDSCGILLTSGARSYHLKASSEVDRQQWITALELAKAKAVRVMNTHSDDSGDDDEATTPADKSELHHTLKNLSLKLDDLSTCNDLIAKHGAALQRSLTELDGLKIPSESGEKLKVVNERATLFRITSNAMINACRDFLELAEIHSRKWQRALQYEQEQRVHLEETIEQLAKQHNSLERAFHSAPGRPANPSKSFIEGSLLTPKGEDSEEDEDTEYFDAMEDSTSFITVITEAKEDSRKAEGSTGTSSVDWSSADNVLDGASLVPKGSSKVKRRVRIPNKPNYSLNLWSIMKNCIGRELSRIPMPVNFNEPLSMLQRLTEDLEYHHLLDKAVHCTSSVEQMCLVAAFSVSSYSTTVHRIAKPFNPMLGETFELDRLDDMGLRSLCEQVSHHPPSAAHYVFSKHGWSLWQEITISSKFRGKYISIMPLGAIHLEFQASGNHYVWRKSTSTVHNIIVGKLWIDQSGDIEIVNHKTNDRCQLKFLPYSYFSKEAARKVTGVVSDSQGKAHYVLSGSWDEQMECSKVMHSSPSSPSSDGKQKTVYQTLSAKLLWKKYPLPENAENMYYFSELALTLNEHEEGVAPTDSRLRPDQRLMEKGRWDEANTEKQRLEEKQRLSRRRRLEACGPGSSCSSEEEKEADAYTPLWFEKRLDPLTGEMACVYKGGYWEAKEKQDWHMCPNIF
metric: pKd
Remember the convention: pKd equals -log10 of concentration in molar.

Item: C[C@H](CCCC(C)(C)O)[C@H]1CC[C@H]2[C@@H]3CC=C4C[C@@H](O)CC[C@]4(C)[C@H]3CC[C@]12C [Compound 25-OHC, 25-hydroxycholesterol] | System: ORP4L-myc-his (Homo sapiens, UniProt Q969R2) | pKd: 7.27
